# Protocol Details: iron precipitation assay (removal of radioactive 55Fe2+ from buffer)
# Format: physicochemical
# Experimental Parameters: pH 7.4, 55Fe2+ 1 μM, compound 10 μM, 15 min
Experimental Endpoint: precipitation of Fe2+

Compound	Result
N=C(N)SCc1cccc2c1oc1c(CSC(=N)N)cccc12 [Compound 1, reference compound]	had no effect
c1ccc(-c2ccccn2)nc1 [bipyridine]	had no effect
Cc1cc(O)nc(-n2nc(C)cc2C)n1 [Compound 5]	had no effect

====

# Tested Target: hDMT1 (SLC11A2) (Homo sapiens, UniProt P49281)
# Construct: DsRED
# Sequence (P49281 whole entry): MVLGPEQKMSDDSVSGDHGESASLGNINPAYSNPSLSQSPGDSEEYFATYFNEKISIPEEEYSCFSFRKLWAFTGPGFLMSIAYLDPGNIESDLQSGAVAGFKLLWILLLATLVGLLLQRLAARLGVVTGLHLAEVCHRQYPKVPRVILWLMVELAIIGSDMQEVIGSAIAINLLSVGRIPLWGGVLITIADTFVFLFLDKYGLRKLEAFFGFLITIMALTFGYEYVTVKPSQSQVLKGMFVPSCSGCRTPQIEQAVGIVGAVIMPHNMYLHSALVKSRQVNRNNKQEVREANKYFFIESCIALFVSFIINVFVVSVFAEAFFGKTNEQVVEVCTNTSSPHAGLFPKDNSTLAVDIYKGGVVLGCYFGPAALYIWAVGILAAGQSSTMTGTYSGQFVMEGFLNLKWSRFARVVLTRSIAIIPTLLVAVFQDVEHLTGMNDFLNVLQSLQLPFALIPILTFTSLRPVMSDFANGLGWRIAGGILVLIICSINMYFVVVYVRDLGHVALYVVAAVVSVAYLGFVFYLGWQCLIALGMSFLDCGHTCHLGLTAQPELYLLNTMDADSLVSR
# Protocol Details: radioactive iron uptake assay in HEK293 cells stably overexpressing hDMT1
# Experimental Parameters: [Fe^2+] → 0; Dixon plot analysis; read-out: inhibition constant Ki
pKi: −log10 of the molar value.
Experimental Endpoint: pKi

Compound	Experimental Endpoint	Number
N=C(N)SCc1cccc2c1oc1c(CSC(=N)N)cccc12 [Compound 1, reference compound]	pKi	5.85
Cc1cc(=O)[nH]c(-n2nc3c(c2C)CCCC3)n1 [Compound 13]	pKi	5.70
